The measurements presented in this section are drawn from patent US20240002497A1.

- Target desc: rhNav1.7α+β1-β2-β3 (rhesus monkey α subunit with human β …)
- Experiment summary: cell-based or functional assay
Reported endpoint: single pulse IC50 (nM)
Give the value, in units of nM, as a plain number.

Which single pulse IC50 is listed for F010300900 (VHH, vs F0103275B05: S27P, I28V, S33R, N53P, S56D, N93R, A94W, T101I) VHH: EVQLVESGGGLVQPGGSLRLSCAASGPVFNINRMAWYRRAPGKQRELVASSTPGGDTNYADSVKGRFTISRDNAKRVYLQMNSLTPEDTAVYYCRWLLQPSIYDISRIYWGQGTLVTVSS ? 36

Moving on to the next binder: F010300631 (VHH, vs F0103275B05: S27P, I28V, S50Y, N53P, N93R) VHH: EVQLVESGGGLVQPGGSLRLSCAASGPVFNINSMAWYRRAPGKQRELVAYSTPGGSTNYADSVKGRFTISRDNAKRVYLQMNSLTPEDTAVYYCRALLQPSIYDISRTYWGQGTLVTVSS 170

How about this binder: F010300948 (VHH, vs F0103275B05: S27P, I28V, S33R, N53P, N93R, A94W, T101I) VHH: EVQLVESGGGLVQPGGSLRLSCAASGPVFNINRMAWYRRAPGKQRELVASSTPGGSTNYADSVKGRFTISRDNAKRVYLQMNSLTPEDTAVYYCRWLLQPSIYDISRIYWGQGTLVTVSS 58

Now give it for F010300880 (VHH, vs F0103275B05: S27P, I28V, S33R, N53P, S56D, N93R, A94W) VHH: EVQLVESGGGLVQPGGSLRLSCAASGPVFNINRMAWYRRAPGKQRELVASSTPGGDTNYADSVKGRFTISRDNAKRVYLQMNSLTPEDTAVYYCRWLLQPSIYDISRTYWGQGTLVTVSS too. 120
